endpoint: pIC50
Scale: pIC50 equals -log10([C]), with [C] in mol/L.

Observed pIC50 on UniProtKB P49327, entry COc1ccc(-c2ccc(C(C(N)=O)N3CCC4(CC3)CN(C3CC3)C(=O)CO4)c(F)c2)cc1 (stereo not drawn) , equals 6.70

Observed pIC50 on UniProtKB P49327, entry NC(=O)C(c1ccc(-c2ccc3cccnc3c2)cc1F)N1CCC2(CC1)CN(C1CC1)C(=O)CO2 (single isomer, unassigned; (+)) , equals 8.52

Observed pIC50 on UniProtKB P49327, entry O=C1COC2(CCN(C(CO)c3ccc(-c4ccc5cccnc5c4)cc3)CC2)CN1C1CC1 (racemic) , equals 7.70
